This collection of values is drawn from patent US20040157740A1.

Assay: logP determination by HPLC (EEC Directive 79/831 Annexe V. A8, gradient method)
Format: physicochemical
Conditions: pH 2; read-out: log P (pH 2)
// reported chromatographic logP per item
Write the value as a bare number.

1. C#CCn1nnnc1-c1ccc(O)c(C)c1 [Example III-6] = 1.41
2. CO/N=C(/C(=O)OC)c1ccccc1COc1ccc(-c2nnn(C)n2)cc1C [Example 1] = 3.08
3. COc1ccc(-c2nnn(C)n2)cc1C [Example V-2] = 2.38
4. COc1ccc(-c2nnn(C(C)(C)C)n2)cc1C [Example V-3] = 3.78

Look up chromatographic logP for this molecule: CNC(=O)/C(=N/OC)c1ccccc1COc1ccc(-c2nc(C(F)(F)F)ns2)cc1C [Example 6] 4.08

Next molecule up: CO/N=C(/C(=O)OC)c1ccccc1COc1ccc(-c2nc(C(F)(F)F)ns2)cc1C [Example 5] 4.62

Next molecule up: Cc1cc(-c2nnn(C(F)F)n2)ccc1O [Example III-7] 2.18

Next molecule up: Cc1cc(-c2nc(C(F)(F)F)ns2)ccc1OCc1ccc(Cl)cc1 [Example V-9] 5.78

Next molecule up: CCc1nc(-c2ccc(OCc3ccccc3/C(=N\OC)C(=O)NC)c(C)c2)no1 [Example 4] 3.24

====

Experiment: logP determination by HPLC (EEC Directive 79/831 Annexe V. A8, gradient method)
Format: physicochemical
Conditions: pH 2; read-out: log P (pH 2)
// reported chromatographic logP per item
Write the value as a bare number.

Look up chromatographic logP for this compound: Cc1cc(-c2nnnn2C)ccc1O 1.04

Next compound up: C#CCn1nnc(-c2ccc(O)c(C)c2)n1 1.81

Next compound up: Cc1cc(-c2nnn(C)n2)ccc1O 1.45

====

Experiment: logP determination by HPLC (EEC Directive 79/831 Annexe V. A8, gradient method)
Assay type: physicochemical
Conditions: pH 2; read-out: log P (pH 2)
Would you please tag the item condition met when its chromatographic logP is 3 or above, and condition not met when it is below?

Answered examples (4):
1) CCc1nc(-c2ccc(O)c(C)c2)no1 = condition not met
2) COc1ccc(-c2nnnn2C(F)F)cc1C = condition not met
3) C#CCn1nnc(-c2ccc(OC)c(C)c2)n1 = condition not met
4) CCc1nc(-c2ccc(OCc3ccccc3/C(=N\OC)C(=O)OC)c(C)c2)no1 = condition met

Hi team, for C#CCn1nnnc1-c1ccc(OC)c(C)c1 , is the recorded chromatographic logP at or above 3? condition not met

Next compound up: CCc1nc(-c2ccc(OC)c(C)c2)no1 condition met

Next compound up: Cc1cc(-c2nnnn2C(F)F)ccc1O condition not met

Next compound up: COc1ccc(-c2nn[nH]n2)cc1C condition not met

Next compound up: COc1ccc(-c2nnn(C(F)F)n2)cc1C condition met

Next compound up: Cc1cc(-c2nnn(C(C)(C)C)n2)ccc1O condition not met

====

// reported chromatographic logP per item
Assay: logP determination by HPLC (EEC Directive 79/831 Annexe V. A8, gradient method)
Type: physicochemical
Conditions: pH 2; read-out: log P (pH 2)
Write the value as a bare number.

For orientation, consider the following solved cases.
1) Cc1cc(-c2nc(C(F)(F)F)ns2)ccc1O = 3.1
2) COc1ccc(/C(N)=N/O)cc1C = 0.36

Let's switch to this compound now.
Look up chromatographic logP for this compound: CNC(=O)/C(=N/OC)c1ccccc1COc1ccc(-c2nnn(C)n2)cc1C 2.58
